Molecular target: SARS-CoV-2 Main Protease (SARS-CoV-2)
Conditions: 50.0 µM
Readings of inhibition for the listed compounds
Give a bare numeral; the unit % is implied.

# count of solved cases: 4
Can you look up the measured inhibition of Cc1ncccc1NC(=O)Cc1cccc(Cl)c1 for me?
0

Recorded inhibition of O=C(NCCN1CCN(c2ccccc2)CC1)NCc1ccccn1 , please.
0

Any idea what inhibition was measured for O=C(Nc1ccc(N(Cc2ccsc2)C(=O)Cn2nnc3ccccc32)cc1)C1CC1 ?
62.2

Query: inhibition; subject: COc1ccc2c(c1)CN(C(=O)CCl)C(c1ccccc1)C2 (stereo not given)
100

Continuing:
Which inhibition reading was recorded for the compound COc1ccc2nnn(CC(=O)N(Cc3ccccn3)c3ccc(C4CCNCC4)cc3)c2c1 ?
94.8

Look at this compound and give its reported inhibition. O=C(c1cc(=O)[nH]c2ccc(F)cc12)N1CCN(S(=O)(=O)c2ccccc2)CC1
16.2
